Where these numbers come from: patent US20230406829A1

pIC50 for assorted molecules
Target: recombinant human VISTA protein (Homo sapiens)
Sequence (Q9H7M9 with tags, fused parts or gaps limits assumed): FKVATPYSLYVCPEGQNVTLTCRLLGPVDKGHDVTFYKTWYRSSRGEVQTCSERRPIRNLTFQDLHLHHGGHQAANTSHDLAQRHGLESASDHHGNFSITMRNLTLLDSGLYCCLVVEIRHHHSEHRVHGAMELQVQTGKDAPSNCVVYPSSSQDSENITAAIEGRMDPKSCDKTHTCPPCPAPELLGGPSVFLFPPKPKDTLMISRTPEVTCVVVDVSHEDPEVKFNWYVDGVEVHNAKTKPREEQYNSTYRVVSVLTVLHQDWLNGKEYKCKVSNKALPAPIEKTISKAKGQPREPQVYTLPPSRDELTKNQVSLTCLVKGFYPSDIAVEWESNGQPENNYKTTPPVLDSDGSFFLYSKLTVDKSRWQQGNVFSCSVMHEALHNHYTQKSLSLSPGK
Assay: Inhibition of VISTA interaction: rescue of IFN-γ release in human PBMC (ELISA)
Settings: 72 h, read-out: IC50 (VISTA interaction inhibitory activity)
pIC50: −log10 of the molar value.
MEASURED ATTRIBUTE: pIC50

| MOLECULE | RESULT |
| --- | --- |
| CC(=O)NCCNCc1cccc(-c2nc3c(C)c(-c4ccccc4)ccn3n2)c1 [Compound 50] | 6.00 to 7.00 |
| Cc1c(-c2ccccc2)ccc2[nH]c(-c3ccc(CNC[C@@H](O)CC(=O)O)cc3)nc12 [Compound 15] | 7.00 to 9.00 |
| COc1cc(-c2nc3c(C)c(-c4ccccc4)ccc3[nH]2)ccc1CNC[C@@H]1CCC(=O)N1 [Compound 24] | 7.00 to 9.00 |
| CC(=O)NCCNCc1cccc(-c2nc3c(CO)c(-c4ccccc4)ccc3[nH]2)c1 [Compound 58] | 6.00 to 7.00 |
| CC(=O)NCCNCc1cccc(-c2nc3ccccc3[nH]2)c1 [Compound 29] | 7.00 to 9.00 |
| COc1cc2cc(-c3cccc(CNCCNC(C)=O)c3)cn2cn1 [Compound 46] | 7.00 to 9.00 |
| Cc1c(-c2ccccc2)ccc2[nH]c(-c3cccc(C(=O)O)c3)nc12 [Compound 31] | 7.00 to 9.00 |
| CC(=O)NCCNCc1cccc(-c2nc3c(C)c(-c4ccc5c(c4)OCCO5)ccc3[nH]2)c1 [Compound 18] | 7.00 to 9.00 |
